# System: Pseudomonas 4 (Pseudomonas peli)
# methodSummary: relative growth (AUC of 72 h growth curve relative to DMSO control, dAUC) (ratio); higher = more growth (less inhibition), active = hit call of the paper
# assayConditions: 20 µM
parameter: relative growth
Numbers only.

Solved cases (5 shown):
1) COc1ccc(C(=CC(=O)N2CCOCC2)c2ccc(Cl)cc2)cc1OC (mixture of isomers); 1.01
2) CC1COC(Cn2cncn2)(c2ccc(Oc3ccc(Cl)cc3)cc2Cl)O1 (stereo not drawn); 1.01
3) COP(=S)(OC)Oc1ccc(SC)c(C)c1; 0.957
4) O=C(NCCc1ncc(C(F)(F)F)cc1Cl)c1ccccc1C(F)(F)F; 0.964
5) CC(Oc1ccc(Oc2ncc(C(F)(F)F)cc2Cl)cc1)C(=O)O (stereo not drawn); 1

Could you tell me relative growth for each of these molecules? They are listed below.
1. Cc1cc(C(C#N)c2ccc(Cl)cc2)c(Cl)cc1NC(=O)c1cc(I)cc(I)c1O (stereo not drawn)
2. CN(C)C(CSS(=O)(=O)O)CSS(=O)(=O)O
3. CCC(CC)Nc1c([N+](=O)[O-])cc(C)c(C)c1[N+](=O)[O-]

Result:
1: 0.883; 2: 0.978; 3: 0.949

----------
For each of the molecules below, state its relative growth.
# Tested on: Community 4
# methodSummary: relative growth (AUC of 72 h growth curve relative to DMSO control, dAUC) (ratio); higher = more growth (less inhibition), active = hit call of the paper
# assayConditions: 20 µM
Give bare numbers.

Please review the entries below; each comes with its answer.
1. CCCCN(CCCC)SN(C)C(=O)Oc1cccc2c1OC(C)(C)C2; 0.917
2. Cc1ccc(/N=C/N(C)/C=N/c2ccc(C)cc2C)c(C)c1; 0.905
3. CCCCC(C#N)(Cn1cncn1)c1ccc(Cl)cc1 (centres undefined); 0.921

Consider the record given below.
Lab note: CC1(C)C(C=C(Cl)Cl)C1C(=O)OCc1cccc(Oc2ccccc2)c1 (centres undefined) gave relative growth of 0.922

----------
# Test system: Microbacterium 1 (Microbacterium arborescens)
# methodSummary: relative growth (AUC of 72 h growth curve relative to DMSO control, dAUC) (ratio); higher = more growth (less inhibition), active = hit call of the paper
# assayConditions: 20 µM
parameter: relative growth
Numbers only.

See these solved cases before continuing.
1) CN(C)C(CSS(=O)(=O)O)CSS(=O)(=O)O; 1.06
2) CCN(CC)c1nc(C)cc(OP(=S)(OC)OC)n1; 1.03
3) CCCCC(C#N)(Cn1cncn1)c1ccc(Cl)cc1 (centres undefined); 0.925
4) CCC(C)(C)C(=O)OC1=C(c2ccc(Cl)cc2Cl)C(=O)OC12CCCCC2; 0.978
5) N#C/N=C1\SCCN1Cc1ccc(Cl)nc1; 1.03
6) COc1ccc(C(=CC(=O)N2CCOCC2)c2ccc(Cl)cc2)cc1OC (mixture of isomers); 1.03
7) CCNc1nc(Cl)nc(NC(C)C)n1; 1.02
8) CCCCN(CCCC)SN(C)C(=O)Oc1cccc2c1OC(C)(C)C2; 1.01
9) CC1(C)C(C=C(Cl)Cl)C1C(=O)OCc1cccc(Oc2ccccc2)c1 (centres undefined); 0.987
10) O=C(O)CNCP(=O)(O)O; 1.05

For each of the molecules below, state relative growth.
1. O=C(Nc1ccccc1-c1ccc(Cl)cc1)c1cccnc1Cl
2. CC(C)N(C(=O)COc1nnc(C(F)(F)F)s1)c1ccc(F)cc1
3. C/C(=N\C#N)N(C)Cc1ccc(Cl)nc1
4. Cc1cc(C2CC2)nc(Nc2ccccc2)n1
5. CCc1cc(C)cc(CC)c1-c1c(OC(=O)C(C)(C)C)n2n(c1=O)CCOCC2
6. CNC(=O)ON=C(C)SC

Result:
[1.01, 1.04, 0.997, 1.05, 1.03, 0.999]

Each molecule below has a recorded value; state its relative growth.
1. CCCCc1c(C)nc(NCC)nc1OS(=O)(=O)N(C)C
2. C#CCN1C(=O)COc2cc(F)c(N3C(=O)C4=C(CCCC4)C3=O)cc21
3. CCCCOC(=O)[C@H](C)Oc1ccc(Oc2ccc(C#N)cc2F)cc1

Result:
1: 1.02; 2: 1.04; 3: 1.04
